Biological target: Pyruvate kinase PKLR (Homo sapiens, UniProt P30613)
Sequence (P30613 whole entry): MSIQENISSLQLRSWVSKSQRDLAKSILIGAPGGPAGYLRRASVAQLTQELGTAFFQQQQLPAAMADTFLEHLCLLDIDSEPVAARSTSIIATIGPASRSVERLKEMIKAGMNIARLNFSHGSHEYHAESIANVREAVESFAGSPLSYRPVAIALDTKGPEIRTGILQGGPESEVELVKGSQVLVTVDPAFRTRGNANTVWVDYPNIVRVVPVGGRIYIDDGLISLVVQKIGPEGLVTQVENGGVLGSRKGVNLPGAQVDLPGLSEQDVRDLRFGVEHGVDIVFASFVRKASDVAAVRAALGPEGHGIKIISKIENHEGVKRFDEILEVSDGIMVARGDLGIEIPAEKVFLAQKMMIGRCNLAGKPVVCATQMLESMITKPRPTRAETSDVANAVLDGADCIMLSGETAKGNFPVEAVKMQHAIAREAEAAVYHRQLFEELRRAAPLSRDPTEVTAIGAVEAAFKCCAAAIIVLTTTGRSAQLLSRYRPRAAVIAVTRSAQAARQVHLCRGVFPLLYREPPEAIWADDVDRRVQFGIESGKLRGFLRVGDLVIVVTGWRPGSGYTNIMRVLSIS
Assay: Activation of wild type PKR (unknown origin) incubated for 60 mins in presence of ADP, PEP and NADH by Spectraax microplate reader based assay

- CPD_SMILES: "Cc1ncccc1C1(O)CCN(C(=O)c2ccc(NS(=O)(=O)c3cccc4cccnc34)cc2)CC1"
  AC50: "< 0.1 µM"
- CPD_SMILES: "CC(F)(F)CCC1(O)CCN(C(=O)c2ccc(NS(=O)(=O)c3cccc4scnc34)cc2OC(F)F)CC1"
  AC50: "< 0.1 µM"
- CPD_SMILES: "CC(C)CC1(O)CCN(C(=O)c2ccc(NS(=O)(=O)c3cccc4ncc(O)nc34)cc2)CC1"
  AC50: "> 10 µM"
- CPD_SMILES: "CNc1nc2c(S(=O)(=O)Nc3ccc(C(=O)N4CCC(O)(c5ccccc5Cl)CC4)cc3)cccc2s1"
  AC50: "< 0.1 µM"
- CPD_SMILES: "O=C(c1ccc(NS(=O)(=O)c2cccc3[nH]cnc23)cc1)N1CCC(O)(c2ccccc2Cl)CC1"
  AC50: "≥ 1.01 µM"
- CPD_SMILES: "Cc1cccc(CC2(O)CCN(C(=O)c3ccc(NS(=O)(=O)c4cccc5cccnc45)cc3)CC2)c1"
  AC50: "< 0.1 µM"
- CPD_SMILES: "O=C(c1ccc(NS(=O)(=O)c2cccc3scnc23)cc1)N1CCC(O)(CCC(F)=C(F)F)CC1"
  AC50: "< 0.1 µM"
- CPD_SMILES: "O=C(c1ccc(NS(=O)(=O)c2cccc3nccnc23)cc1)N1CCC(O)(c2ncc(Cl)s2)CC1"
  AC50: "≤ 1 µM"
- CPD_SMILES: "Cc1cc(C(=O)N2CCC(O)(Cc3ccccc3)CC2)ccc1NS(=O)(=O)c1cccc2cccnc12"
  AC50: "< 0.1 µM"
- CPD_SMILES: "CC(C)(O)CCCC1(O)CCN(C(=O)c2ccc(NS(=O)(=O)c3cccc4nccnc34)cc2)CC1"
  AC50: "> 10 µM"
- CPD_SMILES: "O=C(c1ccc(NS(=O)(=O)c2cccc3cccnc23)cc1)N1CCC(O)(c2cccc(F)c2Cl)CC1"
  AC50: "< 0.1 µM"
- CPD_SMILES: "O=C(c1ccc(NS(=O)(=O)c2cccc3scnc23)cc1)N1CCC(O)(c2sncc2Cl)CC1"
  AC50: "< 0.1 µM"
- CPD_SMILES: "O=C(c1ccc(NS(=O)(=O)c2cccc3ccoc23)cc1)N1CCC(O)(c2ccccc2Cl)CC1"
  AC50: "< 0.1 µM"
- CPD_SMILES: "CC(F)(F)CCC1(O)CCN(C(=O)c2ccc(NS(=O)(=O)c3cc(F)cc4sc(N)nc34)cc2F)CC1"
  AC50: "< 0.1 µM"
- CPD_SMILES: "O=C(c1ccc(NS(=O)(=O)c2cccc3cccnc23)cc1)N1CCC(O)(c2ccccc2)CC1"
  AC50: "< 0.1 µM"
- CPD_SMILES: "O=C(c1ccc(NS(=O)(=O)c2cccc3cccnc23)cc1F)N1CCC(O)(c2ccccc2Cl)CC1"
  AC50: "< 0.1 µM"
- CPD_SMILES: "O=C(c1ccc(NS(=O)(=O)c2c[nH]c3cccnc23)cc1)N1CCC(O)(c2ccccc2Cl)CC1"
  AC50: "> 10 µM"
- CPD_SMILES: "O=C(c1ccc(NS(=O)(=O)c2cccc3cccnc23)cc1)N1CCC(O)(Cc2c(F)cccc2F)CC1"
  AC50: "< 0.1 µM"
- CPD_SMILES: "CC(C)CC1(O)CCN(C(=O)c2ccc(NS(=O)(=O)c3cccc4sc(N)nc34)cc2)CC1"
  AC50: "< 0.1 µM"
- CPD_SMILES: "COc1cc(NS(=O)(=O)c2cccc3cccnc23)ccc1C(=O)N1CCC(O)(c2ccccc2Cl)CC1"
  AC50: "< 0.1 µM"
- CPD_SMILES: "O=C(c1ccc(NS(=O)(=O)c2cccc3cccnc23)cc1)N1CCC(O)(CC2CCC2)CC1"
  AC50: "< 0.1 µM"
- CPD_SMILES: "O=C(c1ncc(NS(=O)(=O)c2cccc3cccnc23)cn1)N1CCC(O)(c2ccccc2)CC1"
  AC50: "> 10 µM"
- CPD_SMILES: "O=C(c1ccc(NS(=O)(=O)c2cccc3scnc23)cc1)N1CCC(O)(CCCC(F)(F)F)CC1"
  AC50: "< 0.1 µM"
- CPD_SMILES: "COCCC1(O)CCN(C(=O)c2ccc(NS(=O)(=O)c3cccc4cccnc34)cc2)CC1"
  AC50: "< 0.1 µM"
- CPD_SMILES: "O=C(c1ccc(NS(=O)(=O)c2ccc(C(F)(F)F)cc2)cc1)N1CCC(O)(Cc2ccccc2)CC1"
  AC50: "> 10 µM"
- CPD_SMILES: "O=C(c1ccc(NS(=O)(=O)c2cccc3cccnc23)cc1)N1CCC(O)(c2cccc(C(F)(F)F)c2)CC1"
  AC50: "< 0.1 µM"
- CPD_SMILES: "O=C(c1ccc(NS(=O)(=O)c2cccc3cccnc23)c(F)c1)N1CCC(O)(Cc2ccccc2)CC1"
  AC50: "< 0.1 µM"
- CPD_SMILES: "N#Cc1cccc(S(=O)(=O)Nc2ccc(C(=O)N3CCC(O)(Cc4ccccc4)CC3)cc2)c1"
  AC50: "> 10 µM"
- CPD_SMILES: "O=C(c1ccc(NS(=O)(=O)c2cccc3c(O)ncnc23)cc1)N1CCC(O)(c2cccc(F)c2F)CC1"
  AC50: "< 0.1 µM"
- CPD_SMILES: "O=C(c1ccc(NS(=O)(=O)Cc2ccccn2)cc1)N1CCC(O)(c2ccccc2Cl)CC1"
  AC50: "> 10 µM"
- CPD_SMILES: "Cc1cc(C(=O)N2CCC(O)(c3ccccc3Cl)CC2)ccc1NS(=O)(=O)c1cccc2nccnc12"
  AC50: "< 0.1 µM"
- CPD_SMILES: "Cc1cc(F)ccc1C1(O)CCN(C(=O)c2ccc(NS(=O)(=O)c3cccc4cccnc34)cc2)CC1"
  AC50: "< 0.1 µM"
- CPD_SMILES: "O=C(c1ccc(NS(=O)(=O)c2cccc3scnc23)cc1)N1CCC(O)(CC2CCC2)CC1"
  AC50: "< 0.1 µM"
- CPD_SMILES: "CC(C)CC1(O)CCN(C(=O)c2ccc(NS(=O)(=O)c3ccc(F)c4cccnc34)cc2)CC1"
  AC50: "< 0.1 µM"
